TESTED ON: PvNMT (Plasmodium vivax, UniProt A5K1A2)
Sequence (A5K1A2 1-410): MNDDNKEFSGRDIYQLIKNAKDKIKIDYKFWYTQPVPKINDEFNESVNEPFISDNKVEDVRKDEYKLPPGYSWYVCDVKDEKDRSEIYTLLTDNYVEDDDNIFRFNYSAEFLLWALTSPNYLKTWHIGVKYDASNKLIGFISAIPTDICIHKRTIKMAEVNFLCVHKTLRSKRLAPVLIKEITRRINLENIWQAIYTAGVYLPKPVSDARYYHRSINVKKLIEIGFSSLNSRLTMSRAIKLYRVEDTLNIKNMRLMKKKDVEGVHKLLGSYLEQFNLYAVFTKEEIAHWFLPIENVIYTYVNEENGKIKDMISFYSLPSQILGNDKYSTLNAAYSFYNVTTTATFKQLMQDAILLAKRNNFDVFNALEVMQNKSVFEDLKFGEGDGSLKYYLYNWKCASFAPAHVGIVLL
TEST NAME: Fluorogenic NMT inhibition assay, PvNMT
ASSAY SETUP: recombinant enzyme; mean of duplicate or triplicate experiments
pIC50: −log10 of the molar value. Square brackets hold non-standard residues; d marks the D form. Peptide text beside a SMILES is read from it. Aun = NCCCCCCCCCCC(=O)O; Aoc = NCCCCCCCC(=O)O
ENDPOINT NAME: pIC50

| COMPOUND | VALUE REPORTED |
| --- | --- |
| Cc1nccn1CCCCCCCCCCC(=O)N[C@@H](CO)C(=O)N[C@@H](CCCCN)C(=O)NCCC1=CCCCC1 | < 4.00 |
| NCCCCCCCCCCC(=O)N[C@@H](CO)C(=O)N[C@@H](CCCCN)C(=O)NCCC1CCCCC1 | 5.98 |
| NCCCCCCCCCC(=O)N[C@@H](CO)C(=O)N[C@@H](CCCCN)C(=O)NCCC1=CCCCC1 | 5.45 |
| NCCCCCCCC(=O)N[C@@H](CO)C(=O)N[C@@H](CCCCN)C(N)=O [Compound 24] (H-[Aoc]-Ser-Lys-NH2) | < 4.00 |
| NCCCCCCCCCC(=O)N[C@@H](CO)C(=O)N[C@@H](CCCCN)C(=O)O | < 4.00 |
| Cc1nccn1CCCCCCCCC(=O)N[C@@H](CO)C(=O)N[C@@H](CCCCN)C(=O)NCCC1CCCCC1 | < 4.00 |
| NCCCCCCCCCCC(=O)N[C@@H](CO)C(=O)N[C@@H](CCCCN)C(=O)O [Compound 25] (H-[Aun]-Ser-Lys-OH) | < 4.00 |

# credit: paper PMC4224572
